The reported numbers originate from the antibiotic and cytotoxicity screens of Wong et al. (2023).

Test system: HSkMC
Test: cytotoxicity call (relative viability < 0.9)
Conditions: 10 µM
In all, about 39,000 compounds went through this assay and about 1,500 (3.8%) were called active. The sample holds actives, similar compounds and a random draw of the others, so the mix is not that of the screen.
Outcomes: active, inactive

compound	label-class
CC(C)N1C[C@H](C)[C@@H](CN(C)Cc2ccc(Cl)c(Cl)c2)Oc2c(C(=O)Nc3ccncc3)cccc2C1=O	inactive
C[C@@H]1CN([C@@H](C)CO)C(=O)c2cc(NC(=O)Nc3ccc4c(c3)OCO4)ccc2O[C@H]1CN(C)Cc1ccc(Cl)c(Cl)c1	inactive
C[C@H]1CN([C@@H](C)CO)C(=O)c2cc(NC(=O)Nc3ccc4c(c3)OCO4)ccc2O[C@H]1CN(C)Cc1ccc(Cl)c(Cl)c1	inactive
C[C@H](CO)N1C[C@H](C)[C@@H](CN(C)S(=O)(=O)c2ccc(Cl)cc2)OCCCC[C@H](C)Oc2ccc(NS(=O)(=O)c3ccccc3)cc2C1=O	inactive
Cc1noc(C)c1NC(=O)N(C)C[C@H]1Oc2ccc(NC(=O)CCCN(C)C)cc2C(=O)N([C@@H](C)CO)C[C@@H]1C	inactive
COc1ccc(S(=O)(=O)N(C)C[C@H]2Oc3ncc(-c4ccncc4)cc3C(=O)N([C@@H](C)CO)C[C@@H]2C)cc1	inactive
COc1ccccc1C#Cc1cnc2c(c1)C(=O)N([C@H](C)CO)C[C@@H](C)[C@@H](CN(C)S(=O)(=O)c1cn(C)cn1)O2	inactive
COc1ccc(S(=O)(=O)Nc2ccc3c(c2)C(=O)N([C@H](C)CO)C[C@H](C)[C@@H](CN(C)C(=O)NC(C)C)O3)cc1	inactive
C[C@@H]1CN([C@H](C)CO)C(=O)c2cc(NS(=O)(=O)c3cccs3)ccc2O[C@@H]1CN(C)S(=O)(=O)c1ccc(F)cc1	inactive
CC(C)CC#Cc1ccc2c(c1)O[C@@H](CN(C)C(=O)c1cnccn1)[C@@H](C)CN([C@@H](C)CO)S2(=O)=O	inactive
COc1ccccc1C#Cc1cnc2c(c1)C(=O)N([C@@H](C)CO)C[C@@H](C)[C@@H](CN(C)S(=O)(=O)c1cn(C)cn1)O2	inactive
COc1ccc(NC(=O)N(C)C[C@@H]2Oc3c(NC(=O)C4CC4)cccc3C(=O)N([C@@H](C)CO)C[C@@H]2C)cc1	inactive
C[C@H]1CN([C@@H](C)CO)C(=O)c2cc(NC(=O)Nc3ccc4c(c3)OCO4)ccc2O[C@@H]1CN(C)Cc1ccc(Cl)c(Cl)c1	inactive
CCN1CCN(Cc2ccc(C(=O)Nc3ccc(C)c(Oc4ccc5c(c4)CC(=O)N5)c3)cc2C(F)(F)F)CC1	active
C[C@H](CO)N1C[C@H](C)[C@@H](CN(C)S(=O)(=O)c2ccccc2F)Oc2ncc(C#Cc3ccccc3F)cc2C1=O	active
C[C@H](CO)N1C[C@H](C)[C@H](CN(C)S(=O)(=O)c2ccccc2)Oc2ccc(NC(=O)CCC(F)(F)F)cc2CC1=O	inactive
C[C@@H]1CN([C@@H](C)CO)C(=O)c2cc(NS(=O)(=O)c3cn(C)cn3)ccc2O[C@H]1CN(C)Cc1ccc(C(=O)O)cc1	inactive
C[C@@H]1CCCCO[C@@H](CN(C)Cc2ccc(C(=O)O)cc2)[C@@H](C)CN([C@@H](C)CO)C(=O)c2cc(NC(=O)Nc3ccc(C(F)(F)F)cc3)ccc2O1	inactive
C[C@@H]1CN([C@@H](C)CO)C(=O)Cc2cc(NC(=O)Nc3ccc4c(c3)OCO4)ccc2O[C@H]1CN(C)Cc1ccc(Cl)c(Cl)c1	inactive
COc1ccc(S(=O)(=O)N(C)C[C@H]2Oc3c(NC(=O)NC(C)C)cccc3C(=O)N([C@H](C)CO)C[C@H]2C)cc1	inactive
C[C@@H]1CN([C@@H](C)CO)C(=O)c2cc(NC(=O)Cc3ccccc3)ccc2O[C@H]1CN(C)S(=O)(=O)c1cccs1	inactive
C=CC(=O)N1CC[C@@H](Oc2nc(Nc3ccc(N4CCC(N5CCN(C)CC5)CC4)cc3)c(C(N)=O)nc2CC)C1	active
COc1ccc(C#Cc2ccc3c(c2)[C@]2(C(=O)N3)[C@H](C(=O)Nc3nc4ccccc4s3)[C@H]3C(=O)O[C@H](c4ccccc4)[C@H](c4ccccc4)N3[C@@H]2c2ccc(O)cc2)cc1	inactive
COc1ccccc1C#Cc1cnc2c(c1)C(=O)N([C@H](C)CO)C[C@@H](C)[C@H](CN(C)S(=O)(=O)c1cn(C)cn1)O2	active
C[C@@H]1CN([C@H](C)CO)C(=O)Cc2cc(NC(=O)Nc3ccc4c(c3)OCO4)ccc2O[C@H]1CN(C)Cc1ccc(Cl)c(Cl)c1	inactive
C[C@H]1CN([C@@H](C)CO)C(=O)c2cc(C#Cc3ccccc3F)cnc2O[C@@H]1CN(C)S(=O)(=O)c1ccccc1F	inactive
CCc1nc(C(N)=O)c(Nc2ccc(N3CCC(N4CCN(C)CC4)CC3)c(OC)c2)nc1NC1CCOCC1	inactive
C[C@@H]1CN([C@H](C)CO)C(=O)c2cc(C#Cc3ccccc3F)cnc2O[C@H]1CN(C)S(=O)(=O)c1ccccc1F	inactive

====

Test system: HSkMC
Test: cytotoxicity call (relative viability < 0.9)
Details: 10 µM
In all, about 39,000 compounds went through this assay and about 1,500 (3.8%) were called active. The sample holds actives, similar compounds and a random draw of the others, so the mix is not that of the screen.
Outcomes: active, inactive

compound	label-class
C[C@@H]1CN([C@@H](C)CO)C(=O)c2cc(NC(=O)Nc3cccc4ccccc34)ccc2O[C@@H](C)CCCCO[C@H]1CN(C)Cc1ccc2c(c1)OCO2	active
C[C@@H]1CN([C@H](C)CO)C(=O)c2cc(NC(=O)Nc3cccc4ccccc34)ccc2O[C@@H](C)CCCCO[C@H]1CN(C)Cc1ccc2c(c1)OCO2	inactive
C[C@@H]1CCCCO[C@H](CN(C)Cc2ccc3c(c2)OCO3)[C@@H](C)CN([C@H](C)CO)C(=O)c2cc(NC(=O)Nc3cccc4ccccc34)ccc2O1	inactive

====

System: HSkMC
Assay: cytotoxicity call (relative viability < 0.9)
Settings: 10 µM
Among all 39,000 compounds or so, about 1,500 (3.8%) were called active. The list comes from a sample in which actives are over-represented; it also holds close analogues and randomly drawn compounds.
Outcomes: true (active), false (inactive)

compound	label-class
COc1ccc2c3c([nH]c2c1)[C@@H](CO)N(Cc1ccc(cc1)Cl)C[C@]13CCN(CC1)Cc1nccs1	false
COc1ccc(NC(=O)Nc2cccc3c2O[C@@H](CN(C)Cc2ccc(Oc4ccccc4)cc2)[C@@H](C)CN([C@@H](C)CO)C3=O)cc1	false
C[C@H]1CN([C@@H](C)CO)C(=O)c2cccc(NS(C)(=O)=O)c2O[C@@H]1CN(C)S(=O)(=O)c1ccccc1	false
COc1ccc(NC(=O)Nc2cccc3c2O[C@@H](CN(C)Cc2ccc(Oc4ccccc4)cc2)[C@H](C)CN([C@@H](C)CO)C3=O)cc1	false
N=c1ccn2c(n1)O[C@H]1[C@H](O)[C@@H](CO)O[C@H]12	true
COc1ccc2c3c([nH]c2c1)[C@H](CO)N(Cc1ccncc1)C[C@]13CCN(CC1)Cc1ccc(cc1)-c1ccccn1	false
COc1ccc2c3c([nH]c2c1)[C@H](CO)N(Cc1ccc(cc1)Cl)C[C@]13CCN(CC1)Cc1ccccc1	true
COc1cccc(S(=O)(=O)N2C[C@H](O)COC[C@H]3O[C@H](CC(=O)N4CCN(C)CC4)CC[C@@H]32)c1	false
COc1ccc(NC(=O)Nc2cccc3c2O[C@H](CN(C)Cc2ccc(Oc4ccccc4)cc2)[C@@H](C)CN([C@@H](C)CO)C3=O)cc1	true
Cc1noc(C)c1S(=O)(=O)Nc1ccc2c(c1)CC(=O)N([C@@H](C)CO)C[C@H](C)[C@@H](CN(C)CC1CC1)O2	false
C[C@H]1CN([C@@H](C)CO)C(=O)CCCn2cc(nn2)CO[C@@H]1CN(C)C(=O)c1ccc(N2CCN(C)CC2)cc1	false
Cl.N=c1ccn2c(n1)OC1C(O)C(CO)OC12 (stereo not given)	false
Cc1ccc(S(=O)(=O)N(C)C[C@@H]2Oc3c(NS(C)(=O)=O)cccc3C(=O)N([C@H](C)CO)C[C@H]2C)cc1	false
COc1ccc(cc1)CN1C[C@]2(CCN(CC2)Cc2ccccc2OC)c2c([nH]c3cc(ccc23)OC)[C@@H]1CO	false
C[C@@H]1CCCCO[C@H](CN(C)Cc2ccc(C(F)(F)F)cc2)[C@H](C)CN([C@@H](C)CO)C(=O)c2cc(NS(=O)(=O)c3ccccc3)ccc2O1	false

====

System: HSkMC (human skeletal muscle cells)
Assay: cytotoxicity call (relative viability < 0.9)
Details: 10 µM
The whole screen tested about 39,000 compounds, of which about 1,500 (3.8%) were called active. The entries come from a sample that favours actives as a whole.
Outcomes: 1.0 = active, 0.0 = inactive

compound	label-class
C[C@H](CO)N1C[C@H](C)[C@H](CN(C)C(=O)Nc2ccc(F)cc2)OCCCC[C@H](C)Oc2ccc(NC(=O)Cc3ccccc3)cc2C1=O	0.0
C[C@@H]1CN([C@H](C)CO)C(=O)c2cccc(NC(=O)Nc3ccc(C(F)(F)F)cc3)c2O[C@@H]1CN(C)C(=O)Nc1ccccc1	1.0
C[C@@H]1CN([C@@H](C)CO)C(=O)c2cccc(NC(=O)Nc3ccccc3)c2O[C@@H]1CN(C)C(=O)Nc1ccc(C(F)(F)F)cc1	0.0
C[C@H](CO)N1C[C@H](C)[C@H](CN(C)C(=O)Nc2ccc(C(F)(F)F)cc2)Oc2c(NC(=O)Nc3ccccc3)cccc2C1=O	0.0
C[C@H]1CN([C@@H](C)CO)C(=O)c2cccc(NC(=O)Nc3ccc(C(F)(F)F)cc3)c2O[C@@H]1CN(C)C(=O)Nc1ccccc1	0.0
C[C@]1(C(=O)NCC(F)(F)F)c2ccccc2C(=O)N(Cc2cc(C(F)(F)F)cc(C(F)(F)F)c2)[C@H]1c1ccc(CO)cc1	0.0
COc1ccc(NC(=O)Nc2cccc3c2O[C@H](CN(C)C(=O)Nc2ccc(C(F)(F)F)cc2)[C@@H](C)CN([C@@H](C)CO)C3=O)cc1	0.0
